tested on: MOLT-4; assay: NCI tumour cell line growth inhibition, 48 h
Calls of active or inactive are those of the source. Cut-off read from the data, not from the text of the source: active = GI50 up to about 1.1 µM and inactive = higher.
Pick one and only one: True for active, False for inactive

Inquiry: Lab log entry: c1ccc2cc(-c3cc4ccccc4s3)ccc2c1 — outcome as called in the assay?
Reply text: False

Inquiry: Lab log entry: O=C1COc2cc3c(cc2N1)SCCC(=O)N3 — outcome as called in the assay?
Reply text: False

Inquiry: Lab log entry: Cc1ccc2c(c1)nc1n2C(c2c(F)cccc2F)SC1 (stereo not given) — outcome as called in the assay?
Reply text: False

Inquiry: Lab log entry: O/N=C(\C(=N/O)Nc1ccc(-c2ccc(NC(=N/O)/C(=N\O)c3ccccc3)cc2)cc1)c1ccccc1 — outcome as called in the assay?
Reply text: False

Inquiry: Lab log entry: CCCCCCCCCCCC(=O)Oc1c(Cl)cc(Cl)c(OC(=O)C(=O)Oc2c(Cl)cc(Cl)c(OC(=O)CCCCCCCCCCC)c2Cl)c1Cl — outcome as called in the assay?
Reply text: False

Inquiry: Lab log entry: [N-]=[N+]=CC(=O)CCC(N)C(=O)O (stereo not given) — outcome as called in the assay?
Reply text: True

Inquiry: Lab log entry: CC(C)N(C(=O)C12C3C4C5(C#N)C3C1(I)C5C42I)C(C)C (stereo not given) — outcome as called in the assay?
Reply text: False

Inquiry: Lab log entry: Brc1ccc(/N=C/C=C(\Nc2ccc(Br)cc2)C23CC4CC(CC(C4)C2)C3)cc1 — outcome as called in the assay?
Reply text: False

Inquiry: Lab log entry: NC1=NC(=O)C(CC(=O)Nc2ccc([N+](=O)[O-])cc2[N+](=O)[O-])S1 (stereo not given) — outcome as called in the assay?
Reply text: False

Inquiry: Lab log entry: CC(C)(Oc1ccc(Cl)cc1)C(=O)N(C(=O)N1CCCCC1)c1ccccc1 — outcome as called in the assay?
Reply text: False
